Molecular target: T1, ECD of rec. EGFR (human, UniProt P00533 25-645)
T1 construct: extracellular domain; also called human epidermal factor receptor (EGFR)
Test: SPR (BIAcore), chip coated with ECD of rec. EGFR
# koff per record follows

binder | koff
Humanized LA22 (H4 + h2) (antibody, human IgG1, V domains shown, Human IgG1 / kappa constant regions; also called H4-LA22 / h2-LA22) VH: EVQLVESGGGLVQPGGSLRLSCASNEYEFPSHDMSWVRQTPGKRLEWVSAITSDGISTYYPDTMERRFTISRDNSKNTLYLQMSSLRAEDTAVYYCARHDWDEGFASWGQGTLVTVSS VL: DVVMTQSPLSLPVTLGQPASISCRSSQSLVHSNGNTYLHWYQQRPGQSPRLLIYKVSNRFSGVPDRFSGSGSGTDFTLKISRVEAEDVGIYFCSQSSHVPPAFGGGTKLEIK | 0.000188 s⁻¹
Humanized LA22 (H2 + h2) (antibody, human IgG1, V domains shown, Human IgG1 / kappa constant regions; also called H2-LA22 / h2-LA22) VH: EVQLVESGGGLVQPGGSLRLSCESNEYEFPSHDMSWVRQAPGKGLEWVSAITSDGISTYYPDTMERRFTISRDNTKKTLYLQMNSLRAEDTAVYYCARHDWDEGFASWGQGTLVTVSS VL: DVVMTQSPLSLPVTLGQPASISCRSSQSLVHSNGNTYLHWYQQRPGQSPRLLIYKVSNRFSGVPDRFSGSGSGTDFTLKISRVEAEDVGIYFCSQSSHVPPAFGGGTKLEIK | 7.7e-05 s⁻¹
Humanized LA22 (H1 + h2) (antibody, human IgG1, V domains shown, Human IgG1 / kappa constant regions; also called H1-LA22 / h2-LA22) VH: EVQLVESGGGLVQPGGSLRLSCESNEYEFPSHDMSWVRQAPGKGLEWVSAITSDGISTYYPDTMERRFTISRDNSKNTLYLQMNSLRAEDTAVYYCARHDWDEGFASWGQGTLVTVSS VL: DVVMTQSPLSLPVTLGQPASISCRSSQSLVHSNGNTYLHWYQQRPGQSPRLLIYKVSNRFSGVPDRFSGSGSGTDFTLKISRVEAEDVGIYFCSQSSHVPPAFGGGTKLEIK | 0.000146 s⁻¹
Mouse monoclonal antibody LA22 (antibody, V domains shown, Mouse hybridoma antibody (ATCC deposit, US 5,459,061); the mouse constant regions are not; also called mLA22; mouse LA22) VH: EVQLVESGGGLVQPGESLKLSCESNEYEFPSHDMSWVRKTPEERLELVAAITSDGISTYYPDTMERRFLISRDNTKKTLYLQMSSLRSEDTALYYCSRHDWDEGFASWGQGTLVTVSA VL: DVVMTQTPLSLPVSLGDQASISCRSSQSLVHSNGNTYLHWYLQKPGQSPKLLIYKVSNRFSGVPDRFSGSGSGTDFTLKISRVEAEDLGIYFCSQSSHVPPAFGGGTKLEIK | 4.3e-05 s⁻¹
